So I've got a bunch of binders here, and I need their SPOT intensity values.
TEST_SYSTEM: T1, Boi2, P39969
T1 sequence (P39969 32-116, looked up): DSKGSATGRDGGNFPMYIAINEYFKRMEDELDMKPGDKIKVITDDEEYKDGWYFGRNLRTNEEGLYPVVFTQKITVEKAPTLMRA
ASSAY_COMMENT: SPOT array
TEST_CONTEXT: median of control spots 1161
One number for each entry.

Some binders with recorded SPOT intensity:
NLPKRKPPKLQGPFS	1
GKFIPSRPAPKPPSS	4
NIKVLLNPKLGKPVK	0

Give measured SPOT intensity for every item shown.
1. VQQDSLPKLPFRSWG
2. TKPTPPPKPSHLKPK
3. SSSSTPPTLPPRRIE
4. WRPRIVPILPYITRL

Completion:
1: 2; 2: 0; 3: 0; 4: 0
